System: Rattus norvegicus
test.name: Plasma concentration after 3 mg/kg peroral dosing in rat at 3.0 hh in rats
Format: ADME, organism-based
Design: dose 3 mg/kg, route oral
test.parameters: in vivo, po
measured.metric: Concentration (ng/mL)
One number for each entry, in ng/mL.

For the compound shown here, "O=c1[nH]nc(CN2CCC[C@H](OCc3cc(C(F)(F)F)cc(C(F)(F)F)c3)[C@@H]2c2ccccc2)[nH]1" , give the reported Concentration. 65

* * *

Tested on: Rhesus monkey
test.name: Plasma concentration after 3 mg/kg intravenous dosing in Rhesus monkey at 8.0 hr
Assay type: ADME, organism-based, Macaca mulatta
Set-up: dose 3 mg/kg, route intravenous
test.parameters: in vivo
measured.metric: Concentration

Missing value: Concentration, Rhesus monkey, entry "O=c1[nH]nc(CN2CCC[C@H](OCc3cc(C(F)(F)F)cc(C(F)(F)F)c3)[C@@H]2c2ccccc2)[nH]1" . Fill in? 720 ng/mL

* * *

Tested on: Rhesus monkey
test.name: Plasma concentration after 3 mg/kg intravenous dosing in Rhesus monkey at 0.167 hr
Assay type: ADME, organism-based, Macaca mulatta
Parameters: dose 3 mg/kg, route intravenous
test.parameters: in vivo
measured.metric: Concentration (ng/mL)
Give bare numbers, in ng/mL.

For the compound shown here, "O=c1[nH]nc(CN2CCC[C@H](OCc3cc(C(F)(F)F)cc(C(F)(F)F)c3)[C@@H]2c2ccccc2)[nH]1" , give the reported Concentration. 5240

* * *

test.name: VD values expressed in (L/Kg) in rat
Assay type: ADME, organism-based
test.parameters: in vivo
measured.metric: Vd (L/kg)
Give bare numbers, in L/kg.

For the compound shown here, "O=c1[nH]nc(CN2CCC[C@H](OCc3cc(C(F)(F)F)cc(C(F)(F)F)c3)[C@@H]2c2ccccc2)[nH]1" , give the reported Vd. 6.5

* * *

test.name: Bioavailability expressed as F% in Rhesus monkey
Assay type: ADME, organism-based, Macaca mulatta
test.parameters: in vivo
measured.metric: bioavailability (%)
Give bare numbers, in %.

For the compound shown here, "O=c1[nH]nc(CN2CCC[C@H](OCc3cc(C(F)(F)F)cc(C(F)(F)F)c3)[C@@H]2c2ccccc2)[nH]1" , give the reported bioavailability. 23.7

* * *

Test system: Rattus norvegicus
test.name: Plasma concentration of 3 mg/kg iv after 6 hr in rats
Format: ADME, organism-based
Set-up: dose 3 mg/kg, route intravenous
test.parameters: in vivo
measured.metric: Concentration (ng/mL)
Give bare numbers, in ng/mL.

For the compound shown here, "O=c1[nH]nc(CN2CCC[C@H](OCc3cc(C(F)(F)F)cc(C(F)(F)F)c3)[C@@H]2c2ccccc2)[nH]1" , give the reported Concentration. 9

* * *

System: Rattus norvegicus
test.name: Plasma concentration of 3 mg/kg iv after 7 hr in rats
Format: ADME, organism-based
Parameters: dose 3 mg/kg, route intravenous
test.parameters: in vivo
measured.metric: Concentration

For the compound shown here, "O=c1[nH]nc(CN2CCC[C@H](OCc3cc(C(F)(F)F)cc(C(F)(F)F)c3)[C@@H]2c2ccccc2)[nH]1" , give the reported Concentration. < 5 ng/mL
